test system: MS2 coat protein; assay: apparent KD of MS2 coat protein; higher = weaker reporter binding; conditions: Eterna round: R107; input ligand: theophylline 2 mM
test-readout: apparent KD of MS2 coat protein
Write the numeric value and follow it with the unit.

monomer-sequence: UUCGUUUGCGGAAGGAGCGACGGACAUCGGUGAACGACGCACAUGAGGAUCACCCAUGUACGUCAGGUAGGUCGCCGCUAAGAGU [Tibira]
apparent KD of MS2 coat protein: 25.2 nM

monomer-sequence: AAGACAUGAGGAUCACCCAUGUGUCAUGAAGGAGCGUCGGAAAUGACAGGUAGGUCGCAUGACCGUUGGCGCCGGAAACGGCGCA [SSAA #15]
apparent KD of MS2 coat protein: 33.3 nM

monomer-sequence: UCACGACGCAACGUGAAAUAAUAAACAGAAGGAGCGAGGAAAGCCUCAGGUAGGUCGCUGACAUGAGGAUCACCCAUGUAUUACA [Same State Arginine A GF5]
apparent KD of MS2 coat protein: 35.1 nM

monomer-sequence: CGGCCCUCACGUGAGGAUCACCCACGUGAUACCAGCCUGGAAACAGGCCCUUGGCAGCACUAGGUCAUCAAAGAUGACCAAGCCG [TheoAX 27 #OpenEnded #AlternativeMS2]
apparent KD of MS2 coat protein: 18.9 nM

monomer-sequence: GAUAUGGAAACAUGUCAGAUCCUUACCGGUCGAGGACCGGUACGGCCGCCACUCGAAAAUAAUAAACAUGAGGAUCACCCAUGUA [Ex Tryptophan A 16]
apparent KD of MS2 coat protein: 17.5 nM

Alright, here's another sequence for you.
Exercise: Please give the measured apparent KD of MS2 coat protein for this sequence: AGAGUCAGACAAAAGUCUGGCUCAACCGAAGGAGCGUCCGAAAGGACAGGUAGGUCGCGGUUACCUGAGGAUCACCCGGGUUCCU [ArgAS 9 #OpenEnded #AlternativeMS2]
Solution: 1040 nM

====

test system: K4 kissing-loop RNA reporter; assay: apparent KD of K4 kissing-loop reporter; higher = weaker reporter binding; conditions: Eterna round: R107; input ligand: none;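 note: bound reporter read as fluorescence of individual clusters on recovered sequencing chips by microscopy, with normalized cluster intensities fitted with a binding model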
Outcome label depends on apparent KD of K4 kissing-loop reporter relative to 0.2 µM: at/above gives criterion met, below gives criterion not met.

monomer-sequence: CCCUCACGAGUGAUGUUCGUAGGGUACAGUCAGGAUAUCAUGCGGUUGAGAAGGGACAGAGAGGGCGGCCACGGGUUGCUCCUCU [Lariusteza]
category-label: criterion met

monomer-sequence: AGUCCACUCUAAAGAGUGGACCUAAGGGAUACCAGUGAUGUUGGUCACCCUUGGCAGCCCGCUGUCAUCGAUAAAGAUGGCAGAA
category-label: criterion not met

Exercise: Answer whether apparent KD of K4 kissing-loop reporter of UUGAGCCUGACGGAAGUCAGGCUCUGCGAGCGAGGACCGGUACGGCCGCCACUCGGUGCAGUGAUGUUGCAUGGCCGCAAGGCCG [#2 Exclusion - Tryptophan A Attempt #16 (HarryS)] is greater than or equal to 0.2 µM.
Solution: criterion met

Exercise: Answer whether apparent KD of K4 kissing-loop reporter of AGUACAAUGGCGGCCGCCACUCAACGCAGAUCAAAGAUCUGCGUUCACUCAGUGAUGUUGAGUGAGAGGACCGGGCCUUUGUACA [Omei KL Tryp B SS B v5] is greater than or equal to 0.2 µM.
Solution: criterion not met

Exercise: Answer whether apparent KD of K4 kissing-loop reporter of GAUUCAGUGAUGUUGGAAGGCGAGCGGGAUACCAGCCAAGACUCAGGCCCUUGGCAGCCCACAUAUCCCAGGUAGAUAGUCGCUC [Same State - Theophylline A (Freestyle 11)] is greater than or equal to 0.2 µM.
Solution: criterion met
